Hey, just so you know, these numbers are from ChEMBL document CHEMBL5352429.

- Tested on: Lipopolysaccharide (LPS)
- protocol summary: Displacement of BODIPY-TR-cadaverine from Salmonella typhimurium LPS assessed as increase in fluorescence intensity by fluorescence spectrophotometric analysis
- condition summary: Salmonella enterica subsp. enterica serovar Typhimurium; dose 0.25-8 µg/ml
Peptide text beside a SMILES is read from it.
observation type: Activity

INSERT INTO results (compound, recorded_measurement) VALUES
  ('CC(C)[C@H](NC(=O)CNC(=O)[C@H](CC(N)=O)NC(=O)CNC(=O)[C@H](Cc1ccc(O)cc1)NC(=O)[C@H](Cc1ccc(O)cc1)NC(=O)[C@@H](N)CCCCN)C(=O)N[C@@H](Cc1c[nH]cn1)C(=O)N[C@@H](CS)C(=O)N[C@H](C(=O)N[C@@H](CCCCN)C(=O)N[C@@H](CO)C(=O)NCC(=O)N[C@@H](CS)C(=O)N[C@@H](CO)C(=O)N[C@H](C(=O)N[C@@H](CC(N)=O)C(=O)N[C@@H](Cc1c[nH]c2ccccc12)C(N)=O)C(C)C)[C@@H](C)O (H-KYYGNGVHCTKSGCSVNW-NH2)', 'Dose-Dependent Effect'),
  ('CC(C)C[C@H](NC(=O)[C@H](CCCCN)NC(=O)[C@H](CC(C)C)NC(=O)[C@H](CCCCN)NC(=O)[C@H](CC(C)C)NC(=O)[C@H](CCCCN)NC(=O)[C@H](CS)NC(=O)CNC(=O)[C@H](CO)NC(=O)[C@H](CCCCN)NC(=O)[C@@H](NC(=O)[C@H](CS)NC(=O)[C@H](CCCCN)NC(=O)[C@H](CC(C)C)NC(=O)[C@H](CCCCN)NC(=O)[C@H](CC(C)C)NC(=O)[C@H](CCCCN)NC(=O)[C@@H](N)CC(C)C)[C@@H](C)O)C(N)=O (H-LKLKLKCTKSGCKLKLKL-NH2)', 'Dose-Dependent Effect'),
  ('CC(C)[C@H](N)C(=O)N[C@@H](CCCCN)C(=O)N[C@@H](CS)C(=O)N[C@H](C(=O)N[C@@H](CCCCN)C(=O)N[C@@H](CO)C(=O)NCC(=O)N[C@@H](CS)C(=O)N[C@@H](CCCCN)C(=O)N[C@H](C(N)=O)C(C)C)[C@@H](C)O (H-VKCTKSGCKV-NH2)', 'Dose-Dependent Effect');

---

- System: RAW264.7
- protocol summary: Inhibition of LPS-stimulated NO production in mouse RAW264.7 cells incubated for 24 hrs by Griess reagent based analysis
- Format: functional, cell-based
- condition summary: dose 1-128 µg/ml
Peptide text beside a SMILES is read from it.
observation type: inhibition

INSERT INTO assay_data (molecule, recorded_measurement) VALUES
  ('C[C@@H](O)[C@H](NC(=O)[C@H](CS)NC(=O)[C@H](CCCCN)NC(=O)[C@@H](N)Cc1c[nH]c2ccccc12)C(=O)N[C@@H](CCCCN)C(=O)N[C@@H](CO)C(=O)NCC(=O)N[C@@H](CS)C(=O)N[C@@H](CCCCN)C(=O)N[C@@H](Cc1c[nH]c2ccccc12)C(N)=O (H-WKCTKSGCKW-NH2)', 'Dose-Dependent Effect'),
  ('CC(C)[C@H](N)C(=O)N[C@@H](CCCCN)C(=O)N[C@H](C(=O)N[C@@H](CCCCN)C(=O)N[C@H](C(=O)N[C@@H](CCCCN)C(=O)N[C@@H](CS)C(=O)N[C@H](C(=O)N[C@@H](CCCCN)C(=O)N[C@@H](CO)C(=O)NCC(=O)N[C@@H](CS)C(=O)N[C@@H](CCCCN)C(=O)N[C@H](C(=O)N[C@@H](CCCCN)C(=O)N[C@H](C(=O)N[C@@H](CCCCN)C(=O)N[C@H](C(N)=O)C(C)C)C(C)C)C(C)C)[C@@H](C)O)C(C)C)C(C)C (H-VKVKVKCTKSGCKVKVKV-NH2)', 'Dose-Dependent Effect'),
  ('CC(C)[C@H](N)C(=O)N[C@@H](CCCCN)C(=O)N[C@H](C(=O)N[C@@H](CCCCN)C(=O)N[C@@H](CS)C(=O)N[C@H](C(=O)N[C@@H](CCCCN)C(=O)N[C@@H](CO)C(=O)NCC(=O)N[C@@H](CS)C(=O)N[C@@H](CCCCN)C(=O)N[C@H](C(=O)N[C@@H](CCCCN)C(=O)N[C@H](C(N)=O)C(C)C)C(C)C)[C@@H](C)O)C(C)C (H-VKVKCTKSGCKVKV-NH2)', 'Dose-Dependent Effect');
